Hey, just so you know, these numbers are from patent US9139523B2.

Target: 5HT2A (Homo sapiens)
Construct: expressed in transfected cells; host or cells: NIH3T3 (membrane fraction)
Sequence (P28223 whole entry): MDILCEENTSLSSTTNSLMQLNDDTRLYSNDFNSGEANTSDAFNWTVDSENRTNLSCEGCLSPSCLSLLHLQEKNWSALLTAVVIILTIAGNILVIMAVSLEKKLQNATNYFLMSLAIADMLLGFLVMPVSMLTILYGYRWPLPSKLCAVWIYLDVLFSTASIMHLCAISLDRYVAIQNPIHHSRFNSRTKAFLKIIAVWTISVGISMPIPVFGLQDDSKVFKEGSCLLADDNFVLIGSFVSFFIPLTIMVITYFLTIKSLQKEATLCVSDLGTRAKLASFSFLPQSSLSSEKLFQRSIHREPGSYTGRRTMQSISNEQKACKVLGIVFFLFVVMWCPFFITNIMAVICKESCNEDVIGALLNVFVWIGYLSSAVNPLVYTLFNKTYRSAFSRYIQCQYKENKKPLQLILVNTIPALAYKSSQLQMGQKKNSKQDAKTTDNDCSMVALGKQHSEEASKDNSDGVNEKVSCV
Assay: Competitive radioligand binding, 5HT2A
Conditions: NIH3T3 membranes, 3H-ketanserin 2 nM; read-out: pIC50 5HT2A (converted)
Readings of log10(IC50) for the listed compounds
Parameter: log10(IC50) (log10 of the value in nM)

> print(dat)
                                   compound    parameter  recorded.result
1  COc1cc(N)c(Cl)cc1C(=O)N[C@@H]1CCN(CCCOc2ccc(F)cc2)C[C@H]1F (racemic) [(±)-7]  log10(IC50)             2.05
2  COc1cc(N)c(Cl)cc1C(=O)N[C@@H]1CCN(CCCOc2ccc(F)cc2)C[C@H]1F (single isomer, unassigned) [(+)-7]  log10(IC50)             1.85
3  COc1cc(N)c(Cl)cc1C(=O)N[C@@H]1CCN(CCCOc2ccc(F)cc2)C[C@H]1F (single isomer, unassigned) [(−)-7]  log10(IC50)             2.88
4  COc1cc(N)c(Cl)cc1C(=O)NC1CCN(CCCOc2ccc(F)cc2)CC1(F)F (racemic) [(±)-17]  log10(IC50)             3.29
5  COc1cc(N)c(Cl)cc1C(=O)N[C@H]1CCN(CCCOc2ccc(F)cc2)C[C@H]1F (racemic) [(±)-12]  log10(IC50)             2.56
6  COc1cc(N)c(Cl)cc1C(=O)NC1CCN(CCCOc2ccc(F)cc2)CC1(F)F (single isomer, unassigned) [Compound (−)-17]  log10(IC50)             3.24
7  COc1cc(N)c(Cl)cc1C(=O)NC1CCN(CCCOc2ccc(F)cc2)CC1(F)F (single isomer, unassigned; (+)) [(+)-17]  log10(IC50)             3.41
8  COc1cc(N)c(Cl)cc1C(=O)N[C@H]1CCN(CCCOc2ccc(F)cc2)C[C@H]1F (single isomer, unassigned) [(+)-12]  log10(IC50)             2.51
9  COc1cc(N)c(Cl)cc1C(=O)N[C@H]1CCN(CCCOc2ccc(F)cc2)C[C@H]1F (single isomer, unassigned) [(−)-12]  log10(IC50)             2.69

* * *

Test: Pharmacokinetic evaluation in the rat
Type: in vivo
Conditions: plasma, intravenous, 2.5 mg/kg; male Sprague Dawley rat; read-out: t½ (converted)
Parameter: half-life (h)

> print(dat)
                                   molecule  parameter  recorded.result
1  COc1cc(N)c(Cl)cc1C(=O)NC1CCN(CCCOc2ccc(F)cc2)CC1(F)F (single isomer, unassigned) [Compound (−)-17]  half-life              1.1

* * *

Biological target: Alpha2B (Homo sapiens)
Construct: expressed in transfected cells; host or cells: CHO (membrane fraction)
Sequence (P18089 whole entry): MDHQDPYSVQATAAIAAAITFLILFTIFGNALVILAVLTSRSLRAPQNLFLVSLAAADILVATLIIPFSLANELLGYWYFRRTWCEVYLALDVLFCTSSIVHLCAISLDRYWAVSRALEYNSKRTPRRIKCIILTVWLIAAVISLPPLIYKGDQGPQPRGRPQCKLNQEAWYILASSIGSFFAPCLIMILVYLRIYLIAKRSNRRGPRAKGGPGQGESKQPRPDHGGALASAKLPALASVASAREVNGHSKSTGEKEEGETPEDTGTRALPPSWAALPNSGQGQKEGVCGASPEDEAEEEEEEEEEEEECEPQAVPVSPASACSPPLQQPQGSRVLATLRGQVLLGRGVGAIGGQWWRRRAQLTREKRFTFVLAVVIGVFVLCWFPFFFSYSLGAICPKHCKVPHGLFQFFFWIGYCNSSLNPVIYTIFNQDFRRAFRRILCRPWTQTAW
Experiment: Competitive radioligand binding, Alpha2B
Settings: CHO membranes, 3H-rauwolscine 1 nM; read-out: pIC50 Alpha2B (converted)
Parameter: IC50

> print(dat)
                                   compound  recorded.result
1  COc1cc(N)c(Cl)cc1C(=O)N[C@H]1CCN(CCCOc2ccc(F)cc2)C[C@H]1F (racemic) [(±)-12]          2.51 µM
2  COc1cc(N)c(Cl)cc1C(=O)N[C@@H]1CCN(CCCOc2ccc(F)cc2)C[C@H]1F (single isomer, unassigned) [(−)-7]          6.03 µM
3  COc1cc(N)c(Cl)cc1C(=O)N[C@@H]1CCN(CCCOc2ccc(F)cc2)C[C@H]1F (racemic) [(±)-7]          2.51 µM
4  COc1cc(N)c(Cl)cc1C(=O)N[C@H]1CCN(CCCOc2ccc(F)cc2)C[C@H]1F (single isomer, unassigned) [(+)-12]          3.39 µM
5  COc1cc(N)c(Cl)cc1C(=O)NC1CCN(CCCOc2ccc(F)cc2)CC1(F)F (single isomer, unassigned; (+)) [(+)-17]          > 10 µM
6  COc1cc(N)c(Cl)cc1C(=O)N[C@@H]1CCN(CCCOc2ccc(F)cc2)C[C@H]1F (single isomer, unassigned) [(+)-7]          2.63 µM
7  COc1cc(N)c(Cl)cc1C(=O)NC1CCN(CCCOc2ccc(F)cc2)CC1(F)F (racemic) [(±)-17]          > 10 µM
8  COc1cc(N)c(Cl)cc1C(=O)N[C@H]1CCN(CCCOc2ccc(F)cc2)C[C@H]1F (single isomer, unassigned) [(−)-12]          5.25 µM

* * *

Assay: Pharmacokinetic evaluation in the mouse
Assay type: in vivo
Conditions: plasma, intravenous, 2.5 mg/kg; male CD1 mouse; read-out: t½ (converted)
Parameter: half-life (h)

> print(dat)
                                   molecule  parameter  recorded.result
1  COc1cc(N)c(Cl)cc1C(=O)NC1CCN(CCCOc2ccc(F)cc2)CC1(F)F (single isomer, unassigned) [Compound (−)-17]  half-life              1.4

* * *

Target: Alpha1A (Homo sapiens)
Construct: expressed in transfected cells; host or cells: CHO (membrane fraction)
Sequence (P35348 whole entry): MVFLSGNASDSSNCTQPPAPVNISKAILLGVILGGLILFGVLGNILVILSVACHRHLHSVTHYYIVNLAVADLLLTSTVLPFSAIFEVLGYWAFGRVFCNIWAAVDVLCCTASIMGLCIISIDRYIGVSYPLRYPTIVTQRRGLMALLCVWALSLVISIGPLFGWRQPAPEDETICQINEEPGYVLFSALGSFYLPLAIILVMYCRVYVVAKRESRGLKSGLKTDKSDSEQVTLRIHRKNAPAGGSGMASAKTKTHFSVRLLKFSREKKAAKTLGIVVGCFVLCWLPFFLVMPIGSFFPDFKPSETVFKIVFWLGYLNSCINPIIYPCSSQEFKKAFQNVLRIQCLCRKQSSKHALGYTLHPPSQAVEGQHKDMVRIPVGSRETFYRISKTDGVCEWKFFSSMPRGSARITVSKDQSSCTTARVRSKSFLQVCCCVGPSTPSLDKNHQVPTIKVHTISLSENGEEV
Test: Competitive radioligand binding, Alpha1A
Settings: CHO membranes, 3H-prazosin 0.25 nM; read-out: pIC50 Alpha1A (converted)
Parameter: IC50

> print(dat)
                                   molecule  parameter  recorded.result
1  COc1cc(N)c(Cl)cc1C(=O)N[C@H]1CCN(CCCOc2ccc(F)cc2)C[C@H]1F (single isomer, unassigned) [(−)-12]       IC50           331 nM
2  COc1cc(N)c(Cl)cc1C(=O)N[C@@H]1CCN(CCCOc2ccc(F)cc2)C[C@H]1F (racemic) [(±)-7]       IC50       > 10000 nM
3  COc1cc(N)c(Cl)cc1C(=O)N[C@H]1CCN(CCCOc2ccc(F)cc2)C[C@H]1F (racemic) [(±)-12]       IC50           447 nM
4  COc1cc(N)c(Cl)cc1C(=O)NC1CCN(CCCOc2ccc(F)cc2)CC1OC (stereo not shown) [Cisapride, reference compound]       IC50           407 nM

* * *

Experiment: Pharmacokinetic evaluation in the mouse
Type: in vivo
Conditions: plasma, po; male CD1 mouse, p.o. 10 mg/kg
Parameter: AUC(0-t) (µg·h/mL)

> print(dat)
                                   molecule  recorded.result
1  COc1cc(N)c(Cl)cc1C(=O)NC1CCN(CCCOc2ccc(F)cc2)CC1(F)F (single isomer, unassigned) [Compound (−)-17]             4.44

* * *

Assay: Pharmacokinetic evaluation in the mouse
Type: in vivo
Settings: plasma, po; male CD1 mouse, p.o. 10 mg/kg
Parameter: Cmax (ng/mL)

> print(dat)
                                   molecule  parameter  recorded.result
1  COc1cc(N)c(Cl)cc1C(=O)NC1CCN(CCCOc2ccc(F)cc2)CC1(F)F (single isomer, unassigned) [Compound (−)-17]       Cmax             1580

* * *

Here, each record is paired with measured IC50 data.
Target: Alpha2A (Homo sapiens, UniProt P08913)
Construct: expressed in transfected cells; host or cells: CHO (membrane fraction)
Sequence (P08913 whole entry): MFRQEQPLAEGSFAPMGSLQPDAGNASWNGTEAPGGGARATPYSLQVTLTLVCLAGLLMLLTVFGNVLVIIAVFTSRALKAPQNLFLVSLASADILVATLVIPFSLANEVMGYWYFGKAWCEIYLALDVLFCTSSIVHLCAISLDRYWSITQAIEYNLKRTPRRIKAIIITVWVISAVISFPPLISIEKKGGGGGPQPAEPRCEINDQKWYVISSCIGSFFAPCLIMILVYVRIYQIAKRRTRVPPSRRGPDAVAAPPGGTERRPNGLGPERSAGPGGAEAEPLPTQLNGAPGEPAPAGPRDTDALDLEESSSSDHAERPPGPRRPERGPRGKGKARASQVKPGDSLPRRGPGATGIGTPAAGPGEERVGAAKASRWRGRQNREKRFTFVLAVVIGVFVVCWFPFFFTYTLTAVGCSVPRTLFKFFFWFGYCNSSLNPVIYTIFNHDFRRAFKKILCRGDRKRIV
Assay: Competitive radioligand binding, Alpha2A
Details: CHO membranes, 3H-rauwolscine 1 nM; read-out: pIC50 Alpha2A (converted)
Parameter: IC50

> print(dat)
                                   molecule                             target.desc  recorded.result
1  COc1cc(N)c(Cl)cc1C(=O)NC1CCN(CCCOc2ccc(F)cc2)CC1(F)F (single isomer, unassigned; (+)) [(+)-17]  Alpha2A (Homo sapiens, UniProt P08913)          > 10 µM
2  COc1cc(N)c(Cl)cc1C(=O)NC1CCN(CCCOc2ccc(F)cc2)CC1(F)F (racemic) [(±)-17]  Alpha2A (Homo sapiens, UniProt P08913)          > 10 µM
3  COc1cc(N)c(Cl)cc1C(=O)N[C@@H]1CCN(CCCOc2ccc(F)cc2)C[C@H]1F (single isomer, unassigned) [(+)-7]  Alpha2A (Homo sapiens, UniProt P08913)          > 10 µM

* * *

Quick reference: IC50 of the listed items.
Target: Alpha2C (Homo sapiens)
Construct: expressed in transfected cells; host or cells: CHO (membrane fraction)
Sequence (P18825 whole entry): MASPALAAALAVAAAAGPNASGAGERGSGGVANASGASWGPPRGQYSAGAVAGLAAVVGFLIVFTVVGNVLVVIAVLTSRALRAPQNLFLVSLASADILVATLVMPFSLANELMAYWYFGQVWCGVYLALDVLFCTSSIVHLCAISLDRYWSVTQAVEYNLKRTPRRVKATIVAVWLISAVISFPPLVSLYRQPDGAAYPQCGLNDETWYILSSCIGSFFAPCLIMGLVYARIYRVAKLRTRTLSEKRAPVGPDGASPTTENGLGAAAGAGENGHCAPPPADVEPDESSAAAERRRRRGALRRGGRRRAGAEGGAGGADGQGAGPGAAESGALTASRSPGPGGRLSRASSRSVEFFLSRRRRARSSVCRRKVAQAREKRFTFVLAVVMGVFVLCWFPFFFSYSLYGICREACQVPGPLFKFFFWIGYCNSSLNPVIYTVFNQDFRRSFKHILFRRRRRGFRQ
Experiment: Competitive radioligand binding, Alpha2C
Conditions: CHO membranes, 3H-rauwolscine 1 nM; read-out: pIC50 Alpha2C (converted)
Parameter: IC50

> print(dat)
                                   compound  recorded.result
1  COc1cc(N)c(Cl)cc1C(=O)NC1CCN(CCCOc2ccc(F)cc2)CC1(F)F (racemic) [(±)-17]          > 10 µM
2  COc1cc(N)c(Cl)cc1C(=O)N[C@@H]1CCN(CCCOc2ccc(F)cc2)C[C@H]1F (single isomer, unassigned) [(+)-7]          > 10 µM
3  COc1cc(N)c(Cl)cc1C(=O)NC1CCN(CCCOc2ccc(F)cc2)CC1(F)F (single isomer, unassigned; (+)) [(+)-17]          > 10 µM
